ASSAY SYSTEM: T1, G9a and GLP (Homo sapiens, UniProt Q96KQ7+Q9H9B1)
T1 sequence (Q96KQ7 2-1210 limits assumed): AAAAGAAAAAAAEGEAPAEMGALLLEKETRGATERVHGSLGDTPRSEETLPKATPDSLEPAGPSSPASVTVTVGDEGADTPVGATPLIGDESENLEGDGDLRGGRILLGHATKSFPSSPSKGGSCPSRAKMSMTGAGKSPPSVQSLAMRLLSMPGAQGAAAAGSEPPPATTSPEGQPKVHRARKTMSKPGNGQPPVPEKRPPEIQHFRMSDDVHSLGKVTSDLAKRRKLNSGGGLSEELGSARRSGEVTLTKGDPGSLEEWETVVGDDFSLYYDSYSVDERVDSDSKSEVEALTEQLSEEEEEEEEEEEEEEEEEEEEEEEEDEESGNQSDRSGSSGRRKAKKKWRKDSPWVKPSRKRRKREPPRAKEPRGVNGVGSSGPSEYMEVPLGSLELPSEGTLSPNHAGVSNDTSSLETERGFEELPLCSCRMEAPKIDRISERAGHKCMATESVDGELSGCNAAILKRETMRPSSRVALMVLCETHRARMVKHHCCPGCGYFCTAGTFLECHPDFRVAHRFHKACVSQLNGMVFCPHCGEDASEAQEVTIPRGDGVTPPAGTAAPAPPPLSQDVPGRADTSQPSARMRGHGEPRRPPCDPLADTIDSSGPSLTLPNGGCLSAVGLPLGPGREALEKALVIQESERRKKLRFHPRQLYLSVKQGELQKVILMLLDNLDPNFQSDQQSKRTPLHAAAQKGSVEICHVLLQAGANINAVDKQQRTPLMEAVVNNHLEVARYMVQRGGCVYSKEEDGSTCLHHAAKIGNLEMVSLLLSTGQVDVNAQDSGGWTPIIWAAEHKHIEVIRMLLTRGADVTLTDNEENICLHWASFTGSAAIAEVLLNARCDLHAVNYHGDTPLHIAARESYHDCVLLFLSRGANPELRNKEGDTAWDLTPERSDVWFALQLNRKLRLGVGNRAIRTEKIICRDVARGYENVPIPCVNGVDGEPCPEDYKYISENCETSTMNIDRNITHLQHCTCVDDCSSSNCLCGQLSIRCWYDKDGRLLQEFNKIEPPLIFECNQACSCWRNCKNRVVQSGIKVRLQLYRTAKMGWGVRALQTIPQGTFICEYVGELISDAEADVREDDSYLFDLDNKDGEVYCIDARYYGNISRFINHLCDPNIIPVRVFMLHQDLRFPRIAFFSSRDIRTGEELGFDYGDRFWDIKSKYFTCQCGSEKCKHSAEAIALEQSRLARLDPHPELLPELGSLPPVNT
T1 sequence (Q9H9B1 2-1298 limits assumed): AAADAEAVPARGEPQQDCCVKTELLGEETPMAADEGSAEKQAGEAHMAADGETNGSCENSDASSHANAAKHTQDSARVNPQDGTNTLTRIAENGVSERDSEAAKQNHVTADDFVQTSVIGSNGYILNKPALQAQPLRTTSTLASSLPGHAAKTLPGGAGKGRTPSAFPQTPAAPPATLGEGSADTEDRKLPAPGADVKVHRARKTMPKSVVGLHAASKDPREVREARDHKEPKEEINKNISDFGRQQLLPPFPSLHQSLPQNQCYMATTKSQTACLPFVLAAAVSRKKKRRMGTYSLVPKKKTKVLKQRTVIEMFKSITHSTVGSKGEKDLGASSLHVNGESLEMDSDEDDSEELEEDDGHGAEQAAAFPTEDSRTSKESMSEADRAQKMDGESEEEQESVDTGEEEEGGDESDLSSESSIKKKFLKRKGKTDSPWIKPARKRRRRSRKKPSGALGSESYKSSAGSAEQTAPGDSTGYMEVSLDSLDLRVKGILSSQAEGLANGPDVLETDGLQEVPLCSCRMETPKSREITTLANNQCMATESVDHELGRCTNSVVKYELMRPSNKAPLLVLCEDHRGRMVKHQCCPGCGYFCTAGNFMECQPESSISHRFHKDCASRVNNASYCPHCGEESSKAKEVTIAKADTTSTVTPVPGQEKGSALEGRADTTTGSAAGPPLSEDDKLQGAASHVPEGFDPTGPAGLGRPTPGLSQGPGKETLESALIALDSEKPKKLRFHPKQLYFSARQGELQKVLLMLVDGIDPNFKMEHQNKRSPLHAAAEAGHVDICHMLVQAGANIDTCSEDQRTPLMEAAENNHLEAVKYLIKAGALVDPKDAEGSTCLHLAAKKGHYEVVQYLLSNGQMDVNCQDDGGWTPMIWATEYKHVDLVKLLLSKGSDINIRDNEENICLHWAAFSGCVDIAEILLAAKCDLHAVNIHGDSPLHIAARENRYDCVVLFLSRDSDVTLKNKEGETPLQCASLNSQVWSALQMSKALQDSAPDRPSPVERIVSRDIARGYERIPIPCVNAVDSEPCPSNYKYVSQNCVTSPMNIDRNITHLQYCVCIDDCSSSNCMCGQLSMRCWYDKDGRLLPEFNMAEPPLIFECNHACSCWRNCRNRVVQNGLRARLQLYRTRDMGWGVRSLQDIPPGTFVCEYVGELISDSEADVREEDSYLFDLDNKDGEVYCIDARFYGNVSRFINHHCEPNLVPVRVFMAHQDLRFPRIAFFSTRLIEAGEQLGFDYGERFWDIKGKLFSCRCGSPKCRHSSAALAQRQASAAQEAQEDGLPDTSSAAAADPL
PROTOCOL DESCRIPTION: Triple SILAC pull-down after UNC0638 treatment of 293T cells, DMSO/UNC0638 ratio of protein captured by 3×MBT;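 note: mass spectrometry (Q-Exactive) SILAC quantitation, DMSO/UNC0638 ratio computed after subtracting 3×MBTD355N mutant pull-down background, only proteins with at least twofold 3×MBT over mutant signal considered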
Type: cell-based
Set-up: endogenous in cells; host or cells: HEK 293T
TEST SETTINGS: SILAC ratio DMSO/UNC0638 of protein pulled down with 3xMBT; UNC0638 in light SILAC media
Reported Relative to UNC0638 UNC Light by item:
Kindly answer with a numeric value in log base 2, unit omitted.

# example entries with known answers
RALY (protein, UniProt Q9UKM9 2-306, looked up) RNA-binding protein Raly: SLKLQASNVTNKNDPKSINSRVFIGNLNTALVKKSDVETIFSKYGRVAGCSVHKGYAFVQYSNERHARAAVLGENGRVLAGQTLDINMAGEPKPDRPKGLKRAASAIYSGYIFDYDYYRDDFYDRLFDYRGRLSPVPVPRAVPVKRPRVTVPLVRRVKTNVPVKLFARSTAVTTSSAKIKLKSSELQAIKTELTQIKSNIDALLSRLEQIAAEQKANPDGKKKGDGGGAGGGGGGGGSGGGGSGGGGGGGSSRPPAPQENTTSEAGLPQGEARTRDDGDEEGLLTHSEEELEHSQDTDADDGALQ ... 0.31
DCAF7 (protein, UniProt P61962 1-342, looked up) DDB1- and CUL4-associated …: MSLHGKRKEIYKYEAPWTVYAMNWSVRPDKRFRLALGSFVEEYNNKVQLVGLDEESSEFICRNTFDHPYPTTKLMWIPDTKGVYPDLLATSGDYLRVWRVGETETRLECLLNNNKNSDFCAPLTSFDWNEVDPYLLGTSSIDTTCTIWGLETGQVLGRVNLVSGHVKTQLIAHDKEVYDIAFSRAGGGRDMFASVGADGSVRMFDLRHLEHSTIIYEDPQHHPLLRLCWNKQDPNYLATMAMDGMEVVILDVRVPCTPVARLNNHRACVNGIAWAPHSSCHICTAADDHQALIWDIQQMPRAIEDPILAYTAEGEINNVQWASTQPDWIAICYNNCLEILRV ... 0.48

Value of Relative to UNC0638 UNC Light reported for the molecule TXN (protein, UniProt P10599 2-105, looked up) Thioredoxin: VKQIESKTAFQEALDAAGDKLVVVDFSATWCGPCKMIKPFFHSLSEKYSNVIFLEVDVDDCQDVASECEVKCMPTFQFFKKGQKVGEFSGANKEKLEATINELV is 0.38
